Hey, just so you know, these numbers are from patent US20210246122A1.

system.tested: Human cGAS amino acids 155-522 (Homo sapiens, UniProt Q8N884)
Construct: hexahistidine tag (N, cleaved yes)
Sequence (Q8N884 157-522): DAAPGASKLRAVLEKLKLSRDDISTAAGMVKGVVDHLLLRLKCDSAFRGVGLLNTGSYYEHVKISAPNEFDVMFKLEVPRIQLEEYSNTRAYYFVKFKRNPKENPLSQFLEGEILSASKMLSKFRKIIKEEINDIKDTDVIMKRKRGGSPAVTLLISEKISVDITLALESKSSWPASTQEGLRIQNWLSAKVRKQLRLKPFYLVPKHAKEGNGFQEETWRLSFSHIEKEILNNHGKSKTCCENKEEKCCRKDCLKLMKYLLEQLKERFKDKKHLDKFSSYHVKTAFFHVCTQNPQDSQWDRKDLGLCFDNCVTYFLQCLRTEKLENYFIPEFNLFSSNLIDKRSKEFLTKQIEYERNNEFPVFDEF
assay.name: cGAS activity assay (DNA-activated cGAS, remaining ATP measured by Kinase-Glo Max luciferase assay)
applied.conditions: 300 nM purified cGAS, 1 μM dsDNA, 250 μM ATP, 100 μM GTP, 37° C. for 1.25 hours
assay.metric: IC50

Entry CN(C)C(=O)[C@H](Cc1ccc(C#N)cc1)Nc1ncnc(Nc2cccc(CN3CCNCC3)c2)n1 has what IC50?
> 250 µM

Endpoint output: IC50 of COCCNC(=O)[C@H](Cc1ccc(C#N)cc1)Nc1nc(NCc2nc3cc(F)ccc3[nH]2)nc(Nc2cccc(CN3CCNCC3)c2)n1 . Value?
> 250 µM

Need IC50 of COC(=O)[C@H](Cc1ccc(C#N)cc1)Nc1nc(NCc2nc3cc(Cl)ccc3[nH]2)nc(Nc2cccc(CN3CCN(C(=O)c4c[nH]nn4)CC3)c2)n1 , thanks.
< 20 µM

For COC(=O)[C@H](Cc1ccc(C#N)cc1)Nc1nc(NCc2nc3cc(F)ccc3[nH]2)nc(Nc2cccc(CN3CCN(C(C)=O)CC3)c2)n1 , what is its reported IC50?
> 250 µM

What IC50 value was documented for this compound, COC(=O)[C@H](Cc1ccc(C#N)cc1)Nc1nc(NCc2nc3cc(F)ccc3[nH]2)nc(Nc2cccc(CN3CCN(C(=O)C4CCN(S(C)(=O)=O)CC4)CC3)c2)n1 ?
> 250 µM

Report IC50 for COC(=O)[C@@H](Cc1ccc(C#N)cc1)Nc1nc(NCc2nc3cc(F)ccc3[nH]2)nc(Nc2cccc(CN3CCN(C(=O)c4nccnc4O)CC3)c2)n1 please.
< 20 µM

Find the recorded IC50 belonging to COC(=O)[C@H](Cc1ccc(C#N)cc1)Nc1nc(Nc2cccc(CN3CCN(C=O)CC3)c2)nc(OC)n1 and report it.
> 250 µM

What measured IC50 goes with COC(=O)[C@H](Cc1ccc(C#N)cc1)Nc1nc(Nc2cccc(CN3CCN(C(=O)[C@@H]4CCCO4)CC3)c2)nc(N(C)CCc2nc3ccc(OC)cc3[nH]2)n1 ?
> 250 µM

Form field: reported IC50 of CNc1nc(Nc2cccc(CN3CCN(C(=O)c4nccnc4O)CC3)c2)nc(N[C@@H](Cc2ccc(C#N)cc2)C(=O)OC)n1
> 250 µM

Tell me the measured IC50 of COC(=O)[C@H](Cc1ccc(C#N)cc1)Nc1nc(Nc2cccc(CN3CCN(C(=O)c4nccnc4O)CC3)c2)nc(OC)n1 , please.
> 250 µM

Name the recorded IC50 for COC(=O)[C@H](Cc1ccc(C#N)cc1)Nc1nc(NCc2nnn[nH]2)nc(Nc2cccc(CN3CCNCC3)c2)n1 .
> 250 µM

Tell me the measured IC50 of COC(=O)[C@H](Cc1ccc(C#N)cc1)Nc1nc(Nc2cccc(CN3CCN(C(=O)c4csnn4)CC3)c2)nc(N(C)CCc2nc3ccc(OC)cc3[nH]2)n1 , please.
> 250 µM

Look up IC50: COC(=O)[C@@H](Cc1ccc(C#N)cc1)Nc1nc(NCc2nc3cc(F)ccc3[nH]2)nc(Nc2cccc(CN3CCNCC3)c2)n1
> 250 µM

Any idea what IC50 was measured for COCCOCCOC(=O)[C@H](Cc1ccc(C#N)cc1)Nc1nc(NCc2nc3cc(F)ccc3[nH]2)nc(Nc2cccc(CN3CCN(C(=O)c4nccnc4O)CC3)c2)n1 ?
< 20 µM

Bench note: what IC50 did Cc1cc2nc(CN(C)c3nc(Nc4cccc(CN5CCN(S(=O)(=O)c6cnn(C)c6C)CC5)c4)nc(N[C@@H](Cc4ccc(C#N)cc4)C(=O)N(C)C)n3)[nH]c2cc1C show?
> 250 µM

Look at this compound and give its reported IC50. Cc1cc2nc(CN(C)c3nc(Nc4cccc(CN5CCN(C(=O)c6cc7[nH]cnc7cc6C)CC5)c4)nc(N[C@@H](Cc4ccc(C#N)cc4)C(=O)N(C)C)n3)[nH]c2cc1C
> 250 µM

Suppose we examine the compound CN(C)C(=O)[C@H](Cc1ccc(C#N)cc1)Nc1nc(NCc2nc3cc(F)ccc3[nH]2)nc(Nc2cccc(CN3CCN(C(=O)OC(C)(C)C)CC3)c2)n1 ; what IC50 value has been reported?
> 250 µM

----------
system.tested: Human cGAS amino acids 155-522 (Homo sapiens)
Construct: hexahistidine tag (N, cleaved yes)
assay.name: cGAS activity assay (DNA-activated cGAS, remaining ATP measured by Kinase-Glo Max luciferase assay)
applied.conditions: 300 nM purified cGAS, 1 μM dsDNA, 250 μM ATP, 100 μM GTP, 37° C. for 1.25 hours
assay.metric: IC50

So what IC50 did CN(C)C(=O)[C@H](Cc1ccc(C#N)cc1)Nc1nc(NCc2nc3cc(F)ccc3[nH]2)nc(Nc2cccc(CN3CCN(C(=O)c4nccnc4O)CC3)c2)n1 get with Human cGAS amino acids 155-522 (Homo sapiens)?
< 20 µM

Please provide the recorded IC50 for COC(=O)[C@H](Cc1ccc(C#N)cc1)Nc1nc(Nc2cccc(CN3CCNCC3)c2)nc(OC)n1 , tested on Human cGAS amino acids 155-522 (Homo sapiens).
> 250 µM

Query the reported IC50 for Human cGAS amino acids 155-522 (Homo sapiens); item: CN(C)C(=O)[C@H](Cc1ccc(C#N)cc1)Nc1nc(NCc2nc3cc(F)ccc3[nH]2)nc(Nc2cccc(CN3CCN(C=O)CC3)c2)n1
20 to 250 µM

What value of IC50 on Human cGAS amino acids 155-522 (Homo sapiens) does COC(=O)[C@H](Cc1ccc(C#N)cc1)Nc1nc(NCc2nc3cc(F)ccc3[nH]2)nc(Nc2cccc(CN3CCN(C(=O)c4nccnc4OC)CC3)c2)n1 have?
> 250 µM

Which IC50 is reported with Human cGAS amino acids 155-522 (Homo sapiens) for this entry: COC(=O)[C@H](Cc1ccc(C#N)cc1)Nc1nc(NCc2ccccc2)nc(Nc2cccc(CN3CCN(C(=O)c4nccnc4O)CC3)c2)n1 ?
20 to 250 µM

Query for Human cGAS amino acids 155-522 (Homo sapiens): what IC50 does the record show for COCCOCCNC(=O)[C@H](Cc1ccc(C#N)cc1)Nc1nc(NCc2nc3cc(F)ccc3[nH]2)nc(Nc2cccc(CN3CCNCC3)c2)n1 ?
> 250 µM

Reported IC50 for Human cGAS amino acids 155-522 (Homo sapiens), given COC(=O)[C@H](Cc1ccccc1)Nc1nc(NCc2nc3cc(F)ccc3[nH]2)nc(Nc2cccc(CN3CCN(C(=O)c4nccnc4O)CC3)c2)n1 ?
< 20 µM

Record COC(=O)[C@H](Cc1ccc(C#N)cc1)Nc1nc(NCc2nc3cc(Cl)ccc3[nH]2)nc(Nc2cccc(CN3CCN(C(=O)c4nccnc4O)CC3)c2)n1 : what is its IC50 with Human cGAS amino acids 155-522 (Homo sapiens)?
< 20 µM

Notebook: pull reported IC50 for Human cGAS amino acids 155-522 (Homo sapiens), entry COC(=O)[C@H](Cc1ccc(C#N)cc1)Nc1nc(NCc2nc3cc(F)ccc3[nH]2)nc(Nc2cccc(CN3CCN(C(=O)c4ccnnc4O)CC3)c2)n1
< 20 µM
